# MEASUREMENT DESCRIPTION: Second study: 10, 25 or 50 mg per day for 10 days in healthy volunteers, pharmacokinetics on days 1 and 10
# Assay type: in vivo, human
# RUN CONDITIONS: human, plasma, oral, 10 mg per day, human, 10 mg per day, Day 1; read-out: Tmax (median time of maximum plasma concentration)
READOUT NAME: Tmax (h)
Numbers only here, please. The scale is h.

# input # get_value(readout='Tmax', item= "C[C@@H](OC[C@@]1(c2ccccc2)CC[C@]2(CCC(=O)N2)CN1)c1cc(C(F)(F)F)cc(C(F)(F)F)c1" )
# output 3

----------
# MEASUREMENT DESCRIPTION: Single dose rising study of the encapsulated formulation in healthy human volunteers, pharmacokinetics
# Format: in vivo
# RUN CONDITIONS: plasma, oral capsule, single dose 200 mg, 0 to 72 hours post administration, read-out: AUC (area under the plasma concentration time curve)
READOUT NAME: AUC (µg·h/mL)
Give a bare numeral; the unit µg·h/mL is implied.

# input # AUC lookup, item "C[C@@H](OC[C@@]1(c2ccccc2)CC[C@]2(CCC(=O)N2)CN1)c1cc(C(F)(F)F)cc(C(F)(F)F)c1"
# output 148

----------
# MEASUREMENT DESCRIPTION: Single dose rising study of the encapsulated formulation in healthy human volunteers, pharmacokinetics
# Type: in vivo
# RUN CONDITIONS: plasma, oral capsule, single dose 100 mg, read-out: Tmax (median time of maximum plasma concentration)
READOUT NAME: Tmax (h)
Form entry: value (h) — number only.

# input Name the recorded Tmax for "C[C@@H](OC[C@@]1(c2ccccc2)CC[C@]2(CCC(=O)N2)CN1)c1cc(C(F)(F)F)cc(C(F)(F)F)c1" .
# output 2

----------
# MEASUREMENT DESCRIPTION: Single dose rising study of the encapsulated formulation in healthy human volunteers, pharmacokinetics
# Type: in vivo
# RUN CONDITIONS: plasma, oral capsule, single dose 10 mg, read-out: Tmax (median time of maximum plasma concentration)
# Procedure: Another aspect of the present invention is the provision of a pharmaceutical formulation comprising a hydrochloride monohydrate salt of Formula II in a capsule oral dosage form which has a Pharmacokinetic (PK) profile obtained under single dose rising rate study conditions in accordance with Table VIII (average of eight study subjects). Blood samples were collected from each volunteer at predose (hour 0) and 0.25, 0.5, 0.75, 1, 1.5, 2, 3, 4, 6, 8, 12, 16, 24, 36, 48, and 72 hours. […]
READOUT NAME: Tmax (h)
Give just the numeric value; h need not be written.

# input State the recorded Tmax for this entry: "C[C@@H](OC[C@@]1(c2ccccc2)CC[C@]2(CCC(=O)N2)CN1)c1cc(C(F)(F)F)cc(C(F)(F)F)c1"
# output 2.5

----------
# MEASUREMENT DESCRIPTION: Second study: 10, 25 or 50 mg per day for 10 days in healthy volunteers, pharmacokinetics on days 1 and 10
# Type: in vivo, human
# RUN CONDITIONS: plasma, oral; human, 50 mg per day, Day 10; read-out: Half Life T ½ (converted)
READOUT NAME: half-life (h)
Kindly provide the numeric value in h only, without the unit symbol.

# input Return reported half-life; argument: "C[C@@H](OC[C@@]1(c2ccccc2)CC[C@]2(CCC(=O)N2)CN1)c1cc(C(F)(F)F)cc(C(F)(F)F)c1"
# output 172

----------
# MEASUREMENT DESCRIPTION: Single dose rising study of the encapsulated formulation in healthy human volunteers, pharmacokinetics
# Format: in vivo
# RUN CONDITIONS: plasma, oral capsule, single dose 100 mg, read-out: Cmax (mean maximum plasma concentration)
READOUT NAME: Cmax (ng/mL)
Give the value in ng/mL but do not write ng/mL after it.

# input Entry "C[C@@H](OC[C@@]1(c2ccccc2)CC[C@]2(CCC(=O)N2)CN1)c1cc(C(F)(F)F)cc(C(F)(F)F)c1" : reported Cmax = ?
# output 475

----------
# MEASUREMENT DESCRIPTION: Second study: 10, 25 or 50 mg per day for 10 days in healthy volunteers, pharmacokinetics on days 1 and 10
# Format: in vivo, human
# RUN CONDITIONS: human, plasma, oral, 10 mg per day, human, 10 mg per day, Day 10; read-out: Tmax (median time of maximum plasma concentration)
READOUT NAME: Tmax
# number then unit; no other words

# input Any idea what its Tmax is? The molecule is "C[C@@H](OC[C@@]1(c2ccccc2)CC[C@]2(CCC(=O)N2)CN1)c1cc(C(F)(F)F)cc(C(F)(F)F)c1"
# output 3 h

----------
# MEASUREMENT DESCRIPTION: Single dose rising study of the encapsulated formulation in healthy human volunteers, pharmacokinetics
# Type: in vivo
# RUN CONDITIONS: plasma, oral capsule, single dose 50 mg, read-out: Tmax (median time of maximum plasma concentration)
READOUT NAME: Tmax (h)
Report only the number, with the unit h understood.

# input Which Tmax is reported for this compound? "C[C@@H](OC[C@@]1(c2ccccc2)CC[C@]2(CCC(=O)N2)CN1)c1cc(C(F)(F)F)cc(C(F)(F)F)c1"
# output 3

----------
# MEASUREMENT DESCRIPTION: Single dose rising study of the encapsulated formulation in healthy human volunteers, pharmacokinetics
# Type: in vivo
# RUN CONDITIONS: plasma, oral capsule, single dose 5 mg, 0 to 72 hours post administration, read-out: AUC (area under the plasma concentration time curve)
READOUT NAME: AUC (µg·h/mL)
Hi! Could you send only the number? It should be in µg·h/mL, unit omitted.

# input Name the recorded AUC for "C[C@@H](OC[C@@]1(c2ccccc2)CC[C@]2(CCC(=O)N2)CN1)c1cc(C(F)(F)F)cc(C(F)(F)F)c1" .
# output 0.931

----------
# MEASUREMENT DESCRIPTION: Single dose rising study of the encapsulated formulation in healthy human volunteers, pharmacokinetics
# Type: in vivo
# RUN CONDITIONS: plasma, oral capsule, single dose 200 mg, read-out: Cmax (mean maximum plasma concentration)
READOUT NAME: Cmax (ng/mL)
Reply with just the number (in ng/mL).

# input Field request: Cmax | item: "C[C@@H](OC[C@@]1(c2ccccc2)CC[C@]2(CCC(=O)N2)CN1)c1cc(C(F)(F)F)cc(C(F)(F)F)c1"
# output 944

----------
# MEASUREMENT DESCRIPTION: Second study: 10, 25 or 50 mg per day for 10 days in healthy volunteers, pharmacokinetics on days 1 and 10
# Assay type: in vivo, human
# RUN CONDITIONS: human, plasma, oral, 25 mg per day, human, 25 mg per day, Day 1, after 10 hour fast; read-out: Cmax (mean maximum plasma concentration)
READOUT NAME: Cmax (ng/mL)
A number alone suffices; assume ng/mL.

# input Can you look up the measured Cmax of "C[C@@H](OC[C@@]1(c2ccccc2)CC[C@]2(CCC(=O)N2)CN1)c1cc(C(F)(F)F)cc(C(F)(F)F)c1" for me?
# output 139

----------
# MEASUREMENT DESCRIPTION: Second study: 10, 25 or 50 mg per day for 10 days in healthy volunteers, pharmacokinetics on days 1 and 10
# Type: in vivo, human
# RUN CONDITIONS: human, plasma, oral, 25 mg per day, human, 25 mg per day, Day 10; footnote: 0 to 72 hours post administration; read-out: AUC (area under the plasma concentration time curve)
READOUT NAME: AUC (ng·h/mL)
Quick reminder: number only, in ng·h/mL, skip the unit.

# input If you can, please state the reported AUC value of "C[C@@H](OC[C@@]1(c2ccccc2)CC[C@]2(CCC(=O)N2)CN1)c1cc(C(F)(F)F)cc(C(F)(F)F)c1" .
# output 9720

----------
# MEASUREMENT DESCRIPTION: Single dose rising study of the encapsulated formulation in healthy human volunteers, pharmacokinetics
# Type: in vivo
# RUN CONDITIONS: plasma, oral capsule, single dose 5 mg, read-out: Tmax (median time of maximum plasma concentration)
READOUT NAME: Tmax
Kindly write the number and append the unit.

# input Need Tmax of "C[C@@H](OC[C@@]1(c2ccccc2)CC[C@]2(CCC(=O)N2)CN1)c1cc(C(F)(F)F)cc(C(F)(F)F)c1" , thanks.
# output 2 h

----------
# MEASUREMENT DESCRIPTION: Single dose rising study of the encapsulated formulation in healthy human volunteers, pharmacokinetics
# Type: in vivo
# RUN CONDITIONS: plasma, oral capsule, single dose 25 mg, read-out: Cmax (mean maximum plasma concentration)
READOUT NAME: Cmax (ng/mL)
Output spec: scalar in ng/mL, unitless text.

# input Data request, read-out Cmax, for "C[C@@H](OC[C@@]1(c2ccccc2)CC[C@]2(CCC(=O)N2)CN1)c1cc(C(F)(F)F)cc(C(F)(F)F)c1"
# output 119

----------
# MEASUREMENT DESCRIPTION: Single dose rising study of the encapsulated formulation in healthy human volunteers, pharmacokinetics
# Assay type: in vivo
# RUN CONDITIONS: plasma, oral capsule, single dose 5 mg, read-out: Cmax (mean maximum plasma concentration)
READOUT NAME: Cmax (ng/mL)
# unit: ng/mL | format: bare number

# input Report Cmax for "C[C@@H](OC[C@@]1(c2ccccc2)CC[C@]2(CCC(=O)N2)CN1)c1cc(C(F)(F)F)cc(C(F)(F)F)c1" please.
# output 27.3
